B1: Caulobacter ParB omega fusion; a variant is named by its letters at X, in order, B8GW30 (parent)
chain: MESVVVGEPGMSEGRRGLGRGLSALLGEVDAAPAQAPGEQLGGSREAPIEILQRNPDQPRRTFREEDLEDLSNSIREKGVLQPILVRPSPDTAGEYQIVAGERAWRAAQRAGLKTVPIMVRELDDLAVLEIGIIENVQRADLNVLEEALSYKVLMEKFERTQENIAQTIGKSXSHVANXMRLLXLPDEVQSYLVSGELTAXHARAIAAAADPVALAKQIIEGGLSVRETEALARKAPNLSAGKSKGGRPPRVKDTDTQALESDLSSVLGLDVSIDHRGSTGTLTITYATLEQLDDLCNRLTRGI

- Variants of: B1
- MEASUREMENT NOTES: one-hybrid fitness for binding parS DNA (scaled: cognate 1, non-cognate 0); higher = stronger binding
- RUN CONDITIONS: with parS DNA site
The full ranking holds about 81,000 sequences; the median of “one-hybrid fitness for binding parS DNA” is about -0.17, and the highest 2% start at about 0.51. What follows is part of a selection rich in the highest values, with near analogues and random picks from the rest.
Response key: yes means one-hybrid fitness for binding parS DNA >= 0.5; no means one-hybrid fitness for binding parS DNA < 0.5.

Worked examples follow.
RQID no
RNDS yes
RQIY no

Does one-hybrid fitness for binding parS DNA meet or surpass 0.5 for `RNDN` ?
no

Test whether the variant `DFAT` records one-hybrid fitness for binding parS DNA of 0.5 or higher.
no

Check the entry `PHQC` : does one-hybrid fitness for binding parS DNA equal or exceed 0.5?
no

# bool: one-hybrid fitness for binding parS DNA of `EPHL` >= 0.5
no

Determine whether measured one-hybrid fitness for binding parS DNA meets or exceeds 0.5 for `RQPS`
yes

Is the recorded value of one-hybrid fitness for binding parS DNA equal to or greater than 0.5 for this variant? `RQIS`
yes

# bool: one-hybrid fitness for binding parS DNA of `RQPT` >= 0.5
no
